Biological target: IRAK4 enzyme (Homo sapiens (Human))
Sequence (Q9NWZ3 whole entry): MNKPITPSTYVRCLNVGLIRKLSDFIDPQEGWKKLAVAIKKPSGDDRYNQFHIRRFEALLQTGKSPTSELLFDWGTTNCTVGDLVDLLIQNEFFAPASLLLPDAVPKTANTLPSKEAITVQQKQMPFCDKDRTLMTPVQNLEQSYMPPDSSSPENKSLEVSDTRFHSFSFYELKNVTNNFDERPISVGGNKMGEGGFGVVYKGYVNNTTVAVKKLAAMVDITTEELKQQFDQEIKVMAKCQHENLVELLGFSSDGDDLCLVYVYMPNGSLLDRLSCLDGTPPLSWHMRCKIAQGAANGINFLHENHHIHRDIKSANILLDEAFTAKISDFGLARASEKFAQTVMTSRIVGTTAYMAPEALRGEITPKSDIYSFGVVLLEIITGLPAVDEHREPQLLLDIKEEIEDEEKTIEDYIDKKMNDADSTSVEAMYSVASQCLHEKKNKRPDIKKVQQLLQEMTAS
Experiment: biochemical
Format: biochemical
Settings: IRAK4 enzyme, TR-FRET (HTRF), 500 μM ATP
pIC50: −log10 of the molar value.
Assay Metric: pIC50

{"columns": ["Molecule", "Assay Metric", "Qualifier Operator", "Experimental Value"],
 "data": [
  ["CC(C)(O)[C@H](F)CNC(=O)c1cnc(-c2ccc3cc(C#N)cnn23)cc1NCCCCS(C)(=O)=O [Example 438]", "pIC50", "=", 9.00],
  ["CC(C)(O)[C@H](F)CNC(=O)c1cnc(-c2ccc3cc(C#N)cnn23)cc1Nc1ccn2ccnc2c1 [Example 570]", "pIC50", ">", 9.00],
  ["CC(C)(O)[C@H](F)CNC(=O)c1cnc(-c2ccc3cc(C#N)cnn23)cc1N[C@H]1C[C@H](COC(=O)N2CC(F)(F)C2)C1 [Example 738]", "pIC50", ">", 9.00],
  ["COC(=O)C12CCCC(Nc3cc(-c4ccc5cc(C#N)cnn45)ncc3C(=O)NC[C@@H](F)C(C)(C)O)(CC1)CC2 [Example 543]", "pIC50", "=", 8.70],
  ["CNC(=O)c1cnc(-c2ccc3cc(C#N)cnn23)cc1NC12CCC(NC(C)=O)(CC1)CC2 [Example 482]", "pIC50", "=", 9.00],
  ["Cc1ncoc1C12CCC(Nc3cc(-c4ccc5cc(C#N)cnn45)ncc3C(=O)NC[C@@H](F)C(C)(C)O)(CC1)CO2 [Example 634]", "pIC50", ">", 9.00],
  ["CC(C)(O)[C@H](F)CNC(=O)c1cnc(-c2ccc3cc(C#N)cnn23)cc1Nc1cnc(-c2cnco2)nc1 [Example 641]", "pIC50", ">", 9.00]
]}

###

# EC50 annotations
System: TNFα
Experiment: cells
Assay type: cell-based, human
Conditions: Homo sapiens, Monocyte, LPS-stimulated human monocytes, TNFα content; read-out: EC50 TNF

{"columns": ["Compound", "Qualifier Operator", "EC50 [nM]"],
 "data": [
  ["CN(C)C1CCC(NC(=O)c2cnc(-c3ccc4cc(C#N)cnn34)cc2N[C@H]2CCC[C@@H](O)C2)CC1 (stereo partly shown)", "=", 162],
  ["[2H]C([2H])([2H])NC(=O)c1cnc(-c2ccc3cc(C#N)cnn23)cc1NC12CC(NC(C)=O)(C1)C2", "=", 55],
  ["CC(C)(O)[C@H](F)CNC(=O)c1cnc(-c2ccc3cc(C#N)cnn23)cc1NC1CC2(CCC2)C1", "=", 130],
  ["CCOc1cc(Nc2cc(-c3ccc4cc(C#N)cnn34)ncc2C(=O)NC[C@@H](F)C(C)(C)O)cnc1-c1cnco1", ">", 10000],
  ["Cn1ccc(Nc2cc(-c3ccc4cc(C#N)cnn34)ncc2C(=O)NC[C@@H](F)C(C)(C)O)n1", "=", 61],
  ["CC(C)(O)[C@H](F)CNC(=O)c1cnc(-c2ccc3cc(C#N)cnn23)cc1Nc1cccc(C#N)c1", "=", 70],
  ["COC1CN(C(=O)C23CCC(Nc4cc(-c5ccc6cc(C#N)cnn56)ncc4C(=O)NC[C@@H](F)C(C)(C)O)(CC2)CC3)C1", "=", 24]
]}

###

# pEC50 annotations
Tested on: TNFα
Test: cells
Format: cell-based, human
Conditions: Homo sapiens, Monocyte, LPS-stimulated human monocytes, TNFα content; read-out: EC50 TNF
pEC50: −log10 of the molar value.
Assay Metric: pEC50

{"columns": ["Compound", "Qualifier Operator", "Experimental Value"],
 "data": [
  ["CC(C)(O)[C@H](F)CNC(=O)c1cnc(-c2ccc3cc(C#N)cnn23)cc1NC1Cc2ccncc2C1 (some centres unmarked) [Example 672]", "=", 7.18],
  ["CC(=O)NC12CCC(Nc3cc(-c4ccc5cc(C#N)cnn45)ncc3C(=O)NC[C@@H](F)C(C)(C)O)(CC1)C2", "=", 7.70],
  ["CC(C)(C)Nc1cc(-c2ccc3cc(C#N)cnn23)ncc1C(=O)NC[C@@H](F)C(C)(C)O", "=", 7.54],
  ["CNC(=O)O[C@H]1CC[C@@H](Nc2cc(-c3ccc4cc(C#N)cnn34)ncc2C(=O)NC[C@@H](F)C(C)(C)O)CC1", "<", 5.00],
  ["CC(C)(O)[C@H](F)CNC(=O)c1cnc(-c2ccc3cc(C#N)cnn23)cc1NC12CCC(C(=O)N3CC(F)(F)C3)(CC1)CC2", "=", 7.77],
  ["CC(C)(O)[C@H](F)CNC(=O)c1cnc(-c2ccc3cc(C#N)cnn23)cc1NC1CCN(C(=O)c2ccoc2)CC1", "=", 6.75],
  ["CC(C)(O)[C@H](F)CNC(=O)c1cnc(-c2ccc3cc(C#N)cnn23)cc1Nc1cnn(C2CNC2)c1", "=", 6.37],
  ["CC(C)(O)[C@H](F)CNC(=O)c1cnc(-c2ccc3cc(C#N)cnn23)cc1NC12CC(C(N)=O)(C1)C2", "=", 6.85],
  ["N#Cc1cnn2c(-c3cc(NC45CCC(O)(CC4)CC5)c(C(=O)NCCC4CCCO4)cn3)ccc2c1 (centres unmarked)", "=", 7.74],
  ["CC(C)(O)[C@H](F)CNC(=O)c1cnc(-c2ccc3cc(C#N)cnn23)cc1N[C@@H]1CN2CCC1CC2", "=", 6.71],
  ["CC(=O)NC[C@H]1CC[C@H](Nc2cc(-c3ccc4cc(C#N)cnn34)ncc2C(=O)NC[C@@H](F)C(C)(C)O)CC1", "=", 7.57],
  ["CC(C)(O)[C@H](F)CNC(=O)c1cnc(-c2ccc3cc(C#N)cnn23)cc1N[C@H]1C[C@H](COC(=O)N2CCC(F)(F)C2)C1", "=", 7.59],
  ["CC(C)(O)[C@H](F)CNC(=O)c1cnc(-c2ccc3cc(C#N)cnn23)cc1NC12CCC(NC(=O)OC3COC3)(CC1)CC2", "=", 7.54],
  ["CO[C@@H]1CCC[C@H](Nc2cc(-c3ccc4cc(C#N)cnn34)ncc2C(=O)NC[C@@H](F)C(C)(C)O)C1", "=", 7.08]
]}

###

# IC50 annotations
Molecular target: IRAK4 enzyme (Homo sapiens (Human))
Test: biochemical
Assay type: biochemical
Settings: IRAK4 enzyme, TR-FRET, 500 μM ATP

{"columns": ["Molecule", "Unit Of Measurement", "IC50"],
 "data": [
  ["CC(C)Nc1cc(-c2ccc3cc(C#N)cnn23)ncc1C(=O)NC1CCS(=O)(=O)C1 (stereo not shown)", "nM", 6],
  ["COC(=O)[C@@H](C)NC(=O)c1cnc(-c2ccc3cc(C#N)cnn23)cc1NC12CCC(O)(CC1)CC2", "nM", 1],
  ["CC(=O)N1CC[C@H]1CNc1cc(-c2ccc3cc(C#N)cnn23)ncc1C(=O)NC[C@@H](F)C(C)(C)O", "nM", 9],
  ["CC(=O)NC[C@H]1CN(c2ccc(Nc3cc(-c4ccc5cc(C#N)cnn45)ncc3C(=O)NC[C@@H](F)C(C)(C)O)cn2)CCO1", "nM", 2]
]}

###

System: TNFα
Experiment: cells
Assay type: cell-based, human
Details: Homo sapiens, Monocyte, LPS-stimulated human monocytes, TNFα by TR-FRET; read-out: EC50 TNF

{"columns": ["Compound", "Qualifier Operator", "EC50, nM"],
 "data": [
  ["COC(=O)N1CCN(c2ccc(Nc3cc(-c4ccc5cc(C#N)cnn45)ncc3C(=O)NC[C@@H](F)C(C)(C)O)cn2)CC1 [Example 870]", "=", 81],
  ["N#Cc1cnn2c(-c3cc(NC45CCC(O)(CC4)CC5)c(C(=O)NC4(C(F)F)CC4)cn3)ccc2c1 [Example 951]", "=", 159],
  ["CC(C)(C)NC(=O)CNC(=O)c1cnc(-c2ccc3cc(C#N)cnn23)cc1NC12CCC(O)(CC1)CC2 [Example 813]", "=", 92],
  ["CC(C)(O)[C@H](F)CNC(=O)c1cnc(-c2ccc3cc(C#N)cnn23)cc1NC[C@H]1COCCN1 [Example 916]", "=", 88],
  ["CC(C)(O)[C@H](F)CNC(=O)c1cnc(-c2ccc3cc(C#N)cnn23)cc1NC[C@H]1CCN(CC(F)(F)F)C1 [Example 901]", "=", 126],
  ["CC(C)Nc1cc(-c2ccc3cccnn23)ncc1C(=O)NC[C@@H](F)C(C)(C)O [Example 817]", "=", 165],
  ["CN(C)C(=O)C(F)(F)CNC(=O)c1cnc(-c2ccc3cc(C(N)=O)cnn23)cc1NC12CCC(O)(CC1)CC2 [Example 962]", ">", 10000]
]}

###

Tested on: TNFα
Experiment: cells
Assay type: cell-based, human
Conditions: Homo sapiens, Monocyte, LPS-stimulated human monocytes, TNFα content; read-out: EC50 TNF
pEC50: −log10 of the molar value.
Assay Metric: pEC50

{"columns": ["Compound", "Experimental Value"],
 "data": [
  ["CC(=O)NC12CC(Nc3cc(-c4ccc5cc(C#N)cnn45)ncc3C(=O)NCC(F)(F)F)(C1)C2", 6.42],
  ["COC(C)(C)[C@H](F)CNC(=O)c1cnc(-c2ccc3cc(C#N)cnn23)cc1NC12CC(NC(C)=O)(C1)C2", 7.40],
  ["CC(C)(O)[C@H](F)CNC(=O)c1cnc(-c2ccc3cc(C#N)cnn23)cc1NC1CN(S(C)(=O)=O)C1", 6.45],
  ["CN(C)C(=O)NC[C@H]1C[C@H](Nc2cc(-c3ccc4cc(C#N)cnn34)ncc2C(=O)NC[C@@H](F)C(C)(C)O)C1", 7.19],
  ["CC(C)Nc1cc(-c2ccc3cc(C#N)cnn23)ncc1C(=O)NC1CC1CO (single isomer, unassigned) [Example 18]", 6.12],
  ["CC1(C)C(=O)Nc2cc(Nc3cc(-c4ccc5cc(C#N)cnn45)ncc3C(=O)NC[C@@H](F)C(C)(C)O)ccc21", 7.64],
  ["COc1ccc(Nc2cc(-c3ccc4cc(C#N)cnn34)ncc2C(=O)NC[C@@H](F)C(C)(C)O)cc1", 7.46]
]}
